Settings: 293.15 K; 4000 kPa; Liquid
Please respond with reported mass density for every item in the list.
Your answer is read as kg/m3, so omit the unit and give the number.

Please indicate mass density recorded for CCCCCCCCn1cc[n+](C)c1.O=S(=O)([N-]S(=O)(=O)C(F)(F)F)C(F)(F)F
1330

Please indicate mass density recorded for CCn1cc[n+](C)c1.O=S(=O)([N-]S(=O)(=O)C(F)(F)F)C(F)(F)F
1528

Please indicate mass density recorded for CCCCCCCn1cc[n+](C)c1.O=S(=O)([N-]S(=O)(=O)C(F)(F)F)C(F)(F)F
1355

Please indicate mass density recorded for CCn1cc[n+](C)c1.F[B-](F)(F)F [1-ethyl-3-methylimidazolium tetrafluoroborate]
1307
